Catalogue of IC50 values
biological target: S. pneumoniae ComD2 receptor (Streptococcus pneumoniae serotype 4, UniProt A0A0H2US84); experiment: β-galactosidase reporter assay, competitive inhibition; type: cell-based
Sequence (A0A0H2US84 1-441): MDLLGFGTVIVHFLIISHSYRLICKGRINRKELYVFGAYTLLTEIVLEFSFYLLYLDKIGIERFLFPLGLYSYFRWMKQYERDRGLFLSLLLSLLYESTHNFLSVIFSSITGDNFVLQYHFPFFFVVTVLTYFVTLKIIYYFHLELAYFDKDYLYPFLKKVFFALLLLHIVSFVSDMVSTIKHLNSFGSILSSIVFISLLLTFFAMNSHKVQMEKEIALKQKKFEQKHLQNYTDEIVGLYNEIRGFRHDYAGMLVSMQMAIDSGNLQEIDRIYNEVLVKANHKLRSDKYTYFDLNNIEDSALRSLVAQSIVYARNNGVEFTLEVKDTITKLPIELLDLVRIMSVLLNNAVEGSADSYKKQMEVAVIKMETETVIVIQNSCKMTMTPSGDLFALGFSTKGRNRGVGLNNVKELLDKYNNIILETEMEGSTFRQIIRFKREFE
Where no end group is shown, it is not given here.
Record the value in nM, omitting the unit from your answer.

IN: I am curious: what IC50 value has been reported for AMRQTHIFFFNFFKRR [S. mitis-CSP-2-E1AI2MN7II8F] ?
OUT: 32.9

IN: I am curious: what IC50 value has been reported for AIRQTHIFFFNFFKRR [S. mitis-CSP-2-E1AN7II8F] ?
OUT: 135

IN: I am curious: what IC50 value has been reported for AMRQTHFFFFNFFKRR [S. mitis-CSP-2-E1AI2MN7FI8F] ?
OUT: 418

====

Catalogue of pIC50 values
Biological target: S. pneumoniae ComD1 receptor (Streptococcus pneumoniae serotype 2, UniProt A0A0H2ZM50)
Sequence (A0A0H2ZM50 1-441): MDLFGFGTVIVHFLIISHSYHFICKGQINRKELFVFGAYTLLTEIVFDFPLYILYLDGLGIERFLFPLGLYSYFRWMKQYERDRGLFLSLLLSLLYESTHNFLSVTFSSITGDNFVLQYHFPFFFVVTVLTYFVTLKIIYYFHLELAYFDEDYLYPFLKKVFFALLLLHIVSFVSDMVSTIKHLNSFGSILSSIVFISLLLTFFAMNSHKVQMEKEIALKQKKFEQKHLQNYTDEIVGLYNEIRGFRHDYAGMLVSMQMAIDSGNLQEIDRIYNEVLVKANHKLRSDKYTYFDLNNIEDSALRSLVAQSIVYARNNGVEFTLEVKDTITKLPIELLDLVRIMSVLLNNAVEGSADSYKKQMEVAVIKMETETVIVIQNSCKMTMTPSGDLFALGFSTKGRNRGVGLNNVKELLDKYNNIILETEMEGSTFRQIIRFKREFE
Assay: β-galactosidase reporter assay, competitive inhibition
Type: cell-based
Where no end group is shown, it is not given here.
The meaning of pIC50 here: minus log10 of the concentration in molar units.

Completed entries (count: 5):
{"CHAIN": "AMRLTHNFFFNFFKRR [S. mitis-CSP-2-E1AI2MQ4LI8F]", "pIC50": 6.50}
{"CHAIN": "AMRQTHFFFFNFFKRR [S. mitis-CSP-2-E1AI2MN7FI8F]", "pIC50": 6.53}
{"CHAIN": "AMRLTHNIFFNFFKRR [S. mitis-CSP-2-E1AI2MQ4L]", "pIC50": 7.27}
{"CHAIN": "AIRQTHIFFFNFFKRR [S. mitis-CSP-2-E1AN7II8F]", "pIC50": 6.69}
{"CHAIN": "AMRQTHNIFFNFFKRR [S. mitis-CSP-2-E1AI2M]", "pIC50": 7.07}

IN: I am curious: what pIC50 value has been reported for AMRQTHIFFFNFFKRR [S. mitis-CSP-2-E1AI2MN7II8F] ?
OUT: 6.85

IN: I am curious: what pIC50 value has been reported for AMRQTHNFFFNFFKRR [S. mitis-CSP-2-E1AI2MI8F] ?
OUT: 6.84

IN: I am curious: what pIC50 value has been reported for AIRQTHNIFFNFFKRR [S. mitis-CSP-2-E1A] ?
OUT: 6.30

====

biological target: S. pneumoniae ComD2 receptor (Streptococcus pneumoniae serotype 4, UniProt A0A0H2US84); assay: β-galactosidase reporter assay, agonism; assay type: cell-based
Where no end group is shown, it is not given here.
READOUT: pEC50
The meaning of pEC50 here: minus log10 of the concentration in molar units.

{"CHAIN": "EIRLTHNIFFNFFKRR [S. mitis-CSP-2-Q4L]", "READOUT": "pEC50", "VALUE": 6.60}
{"CHAIN": "EIRLTHFFFFNFFKRR [S. mitis-CSP-2-Q4LN7FI8F]", "READOUT": "pEC50", "VALUE": 7.06}
{"CHAIN": "EIRQTHNFFFNLFKRR [S. mitis-CSP-2-I8FF12L]", "READOUT": "pEC50", "VALUE": 6.69}

IN: Request body: readout pEC50, system S. pneumoniae ComD2 receptor (Streptococcus pneumoniae serotype 4, UniProt A0A0H2US84), query EMRLTHNIFFFFFKRR [S. mitis-CSP-2-I2MQ4LN11F] . Return the value.
OUT: 6.73

Reference source for all entries: paper PMC7470514
